protocol_text: Inhibition of binding of biotinylated chicken galectin-8S to surface immobilized asialofetuin by solid phase assay
Set-up: species or system Gallus gallus
measurement_name: IC50 (µM)

1) LACTOSE, ANHYDROUS ... 1800

====

test_target: UniProt:A4GTP0
Sequence (A4GTP0 whole entry): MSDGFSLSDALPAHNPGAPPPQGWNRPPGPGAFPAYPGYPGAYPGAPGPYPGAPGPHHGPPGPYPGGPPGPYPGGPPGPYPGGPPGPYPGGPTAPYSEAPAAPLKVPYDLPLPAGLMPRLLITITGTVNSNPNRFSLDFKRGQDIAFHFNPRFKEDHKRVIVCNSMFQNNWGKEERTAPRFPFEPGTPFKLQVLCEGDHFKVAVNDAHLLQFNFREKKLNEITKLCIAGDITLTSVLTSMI
protocol_text: Inhibition of binding of biotinylated chicken galectin-3 to surface immobilized asialofetuin by solid phase assay
pIC50: −log10 of the molar value.
measurement_name: pIC50

1. C=CC[C@@H]1O[C@@H](C(=O)NCc2ccc(CNC(=O)[C@H]3O[C@H](CC=C)[C@H](OCc4ccccc4)[C@@H](OCc4ccccc4)[C@@H]3OCc3cn([C@@H]4O[C@H](CO)[C@@H](O[C@@H]5O[C@H](CO)[C@H](O)[C@H](O)[C@H]5O)[C@H](O)[C@H]4O)nn3)cc2)[C@H](OCc2cn([C@@H]3O[C@H](CO)[C@@H](O[C@@H]4O[C@H](CO)[C@H](O)[C@H](O)[C@H]4O)[C@H](O)[C@H]3O)nn2)[C@@H](OCc2ccccc2)[C@@H]1OCc1ccccc1 ... 4.85
2. O=C1NCc2ccc(cc2)CNC(=O)[C@@H]2O[C@@H](C/C=C/C[C@H]3O[C@H]1[C@@H](OCc1cn([C@@H]4O[C@H](CO)[C@@H](O[C@@H]5O[C@H](CO)[C@H](O)[C@H](O)[C@H]5O)[C@H](O)[C@H]4O)nn1)[C@H](OCc1ccccc1)[C@H]3OCc1ccccc1)[C@@H](OCc1ccccc1)[C@H](OCc1ccccc1)[C@H]2OCc1cn([C@@H]2O[C@H](CO)[C@@H](O[C@@H]3O[C@H](CO)[C@H](O)[C@H](O)[C@H]3O)[C@H](O)[C@H]2O)nn1 ... 4.10
3. O=C(/C=C/C(=O)N[C@@H]1O[C@H](CO)[C@@H](O[C@@H]2O[C@H](CO)[C@H](O)[C@H](O)[C@H]2O)[C@H](O)[C@H]1O)N[C@@H]1O[C@H](CO)[C@@H](O[C@@H]2O[C@H](CO)[C@H](O)[C@H](O)[C@H]2O)[C@H](O)[C@H]1O ... 3.22
4. OC[C@H]1O[C@@H](O[C@H]2[C@H](O)[C@@H](O)[C@H](n3cc(-c4ccc(-c5cn([C@@H]6O[C@H](CO)[C@@H](O[C@@H]7O[C@H](CO)[C@H](O)[C@H](O)[C@H]7O)[C@H](O)[C@H]6O)nn5)cc4)nn3)O[C@@H]2CO)[C@H](O)[C@@H](O)[C@H]1O ... 4.15

Data origin, for the record: ChEMBL document CHEMBL2202999
